ASSAY_EXPLANATION: AM_Perm (artificial membrane permeability)
Type: in vitro ADME
STUDY_CONDITIONS: PAMPA
PARAMETER: AM Perm

Task: Return AM Perm for the following compound: Nc1nccc(-c2c(-c3ccc(F)cc3)ncn2C2CCNCC2)n1 [Compound 1]
Output: 91 nm/s

---

For each of the molecules below, state its AM Perm.
ASSAY_EXPLANATION: AM_Perm (artificial membrane permeability)
Type: in vitro ADME
Numbers only, in nm/s.

Sample records with AM Perm:
Nc1ccc2c(-c3ccncc3)c(-c3ccc(Cl)c(O)c3)[nH]c2n1: 110
COc1ccc(-c2c(-c3cccc(C(=O)N4CCN(C)CC4)c3)oc3ncnc(N)c23)cc1: 324
CC(C)(CN)c1cc(-c2ccc(Cl)c(O)c2)c(-c2ccncc2)o1: 531
O=C(c1cccc(OCc2cccnc2)c1)N1CCc2sccc2C1CN1CCCCC1 (stereo not drawn): 551
COc1cccc(Nc2nc(-c3ccncc3)cc(N3CCN(C)CC3)n2)c1: 599

# context switch: different molecule, same AM Perm
Task: Return AM Perm for the following molecule: COc1cc(CS(C)(=O)=O)ccc1Nc1nc(Nc2cc(F)ccc2C(N)=O)c2cc[nH]c2n1
Output: 77

The values you see were collected from paper PMC6504873.
